assay: Intrinsic clearance in human liver S9 fraction at 25 uM incubated for 1 hr in presence of NADPH by LC-MS/MS analysis; assay type: ADME, subcellular; details: read-out: CLH

{"RECORD SMILES": "O=C(Cc1cncnc1)N(Cc1cccc(Cl)c1)c1ccc(-c2cn[nH]c2)cc1", "CLint scaled at 25 µM": "145 mL/min/kg"}
{"RECORD SMILES": "O=C(Cn1nnc2ccccc21)N(Cc1cccc(Cl)c1)c1ccc(-c2cn[nH]c2)cc1", "CLint scaled at 25 µM": "436 mL/min/kg"}
{"RECORD SMILES": "O=C(Cc1cccnc1)N(Cc1cccc(Cl)c1)c1ccc(-c2cn[nH]c2)cc1", "CLint scaled at 25 µM": "256 mL/min/kg"}

meta.source: ChEMBL document CHEMBL5042481
